Values from the supplement of paper PMC10567573

B1: SLC35F2 (parent)
chain: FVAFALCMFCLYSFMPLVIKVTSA

Variants of: B1
Protocol description: protein stability index of a GFP-peptide fusion (GPS, HEK-293T) (PSI 1-6); higher = more stable;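 further: lentivirally expressed fusions sorted by FACS into six bins by GFP to DsRed ratio, PSI derived from sequencing read proportions per bin multiplied by bin number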
Test conditions: c terminus: a fixed tail appended
Here, each record is paired with measured protein stability index data.
The response must contain the number and no unit.

Here are 3 variants together with their reported answers.
>>> result("FVAFALCMFCLCSFMPLVIKVTSA [Y12C]")
2.32
>>> result("FVAFALCMFCLYSFMYLVIKVTSA [P16Y]")
4.47
>>> result("FVAFALCDFCLYSFMPLVIKVTSA [M8D]")
2.12

Task: GET /values?readout=protein stability index&item= FVAFALCAFCLYSFMPLVIKVTSA [M8A]
Result: 3.8

Task: Value lookup for protein stability index; key = FVAFALCMFVLYSFMPLVIKVTSA [C10V]
Result: 3.48

Task: What does the data say about its protein stability index? Entry: FVAFALCMFCLFSFMPLVIKVTSA [Y12F]
Result: 2.54

Task: Record request: protein stability index value, item FVAFAQCMFCLYSFMPLVIKVTSA [L6Q]
Result: 3.48

Task: Using the record for FVAFALCMFCLYSFMPLVIQVTSA [K20Q] , report its protein stability index.
Result: 3.38

Task: Dear colleague, I am looking for the recorded protein stability index of the following variant: FVRFALCMFCLYSFMPLVIKVTSA [A3R]
Result: 3.31

Task: Recorded protein stability index of FVAFAICMFCLYSFMPLVIKVTSA [L6I] , please.
Result: 2.5

Task: // protein stability index lookup, key: PVAFALCMFCLYSFMPLVIKVTSA [F1P]
Result: 2.61

Task: I would be grateful if you could share the reported protein stability index for FVAFALCMFCLNSFMPLVIKVTSA [Y12N] .
Result: 3.2

Task: Return reported protein stability index; argument: FVAFALCMFCLYSFMPLVIKVTEA [S23E]
Result: 2.49

Task: Recorded protein stability index of HVAFALCMFCLYSFMPLVIKVTSA [F1H] , please.
Result: 3.02

Task: // returns reported protein stability index for input FVAFALMMFCLYSFMPLVIKVTSA [C7M]
Result: 3.58

Task: // lookup protein stability index for FVAFALCMFCLYSFMPLVIKVTPA [S23P]
Result: 2.96

Task: Item FVAWALCMFCLYSFMPLVIKVTSA [F4W] has what recorded protein stability index?
Result: 3.22

Task: # get_value(readout='protein stability index', item= FVADALCMFCLYSFMPLVIKVTSA [F4D] )
Result: 4.88

Task: Need protein stability index, item FVAFALCMPCLYSFMPLVIKVTSA [F9P]
Result: 2.44

Task: // returns reported protein stability index for input FVAFAWCMFCLYSFMPLVIKVTSA [L6W]
Result: 3.52

Task: Would you mind telling me what protein stability index value was observed for FVAFALCMFCLYSFMPLVQKVTSA [I19Q] ?
Result: 3.62

Task: Please give the measured protein stability index for this variant: FVAFALCMFCLYSFMPLVIKCTSA [V21C]
Result: 1.7
